# Lookup of reported normalized growth keyed by entry
Experiment: chemical genetic growth profiling, strain panel (AID 1159580);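 note: tested at 20 µM; growth read once vehicle control cultures reached saturation at 30 °C; 1 = growth at the plate median or of vehicle wells; lower values mean less growth of the strain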
Conditions: S. cerevisiae deletion strains, growth OD, locus YNL067W, strain RPL9B, stronger effect = lower value
Screen size: about 5,500 compounds; about 2,000 (36%) were called active. Not shown: some 18% with an inconclusive outcome. The list shows a part of the results.
Form rule: numeric answer, no unit written next to it.

c1ccc2c(c1)CN1CCCC1=N2    0.979
CC(=O)O[C@H]1CC[C@]2(C)C3=CC(=O)[C@@]4(C)C(C[C@@H]5OC6(OCC(C)CC6Br)[C@@H](C)[C@@H]54)C3CC[C@H]2C1 (stereo not given in full)    0.98
NCC(CC(=O)O)c1ccc(Cl)cc1 (stereo not given)    1
CC(CN1c2ccccc2Sc2cccnc21)N(C)C (stereo not given)    1.02

Could you now consider this next compound?
[Q] Which normalized growth value is on record for C=C1C2=CC(=O)O[C@@H](c3ccoc3)[C@]2(C)CCC1[C@@]1(C)C=CC(=O)C(C)(C)[C@@H]1CC(=O)OC (stereo not given in full) ?
[A] 1

----------
Experiment: chemical genetic growth profiling, strain panel (AID 1159580);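 note: tested at 20 µM; growth read once vehicle control cultures reached saturation at 30 °C; 1 = growth at the plate median or of vehicle wells; lower values mean less growth of the strain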
Conditions: S. cerevisiae deletion strains, growth OD, locus YER111C, strain swi4, stronger effect = lower value
About 2,000 (36%) of roughly 5,500 compounds were called active. Roughly 18% stayed inconclusive and do not appear here. The list shows a part of the results.
# Lookup of reported normalized growth keyed by entry
Form rule: numeric answer, no unit written next to it.

CC(=O)O[C@H]1C[C@@H](OC(C)=O)C(C)(C)C2CC(=O)[C@]3(C)C(CC[C@@]4(C)[C@H](c5ccoc5)OC(=O)[C@H]5O[C@]543)[C@]21C (stereo partly specified)    1
c1ccc2nc(N3CCNCC3)ccc2c1    0.99
C[C@H](CCC(=O)O)[C@H]1CCC2C3C(CC[C@@]21C)[C@@]1(C)CC[C@@H](O)C[C@H]1C[C@H]3O (stereo partly specified)    1.02

[Q] Which normalized growth value is on record for "C[C@@H](N)[C@@H](O)c1ccccc1" ?
[A] 0.981

[Q] Try this molecule next: "COc1c2ccccc2nc2occc12"
[A] 0.981

[Q] Try this molecule next: "CN1CCN(C2=Nc3ccccc3Oc3ccc(Cl)cc32)CC1"
[A] 0.998

[Q] Try this molecule next: "O=c1cc(-c2ccccc2)oc2cccc(O)c12"
[A] 0.985

[Q] Try this molecule next: "O=C(O)CCCOc1ccc(Cl)cc1Cl"
[A] 0.944

----------
# Lookup of reported normalized growth keyed by entry
Test: chemical genetic growth profiling, strain panel (AID 1159580);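 note: tested at 20 µM; growth read once vehicle control cultures reached saturation at 30 °C; 1 = growth at the plate median or of vehicle wells; lower values mean less growth of the strain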
Details: S. cerevisiae deletion strains, growth OD, locus YML016C, strain PPZ1, stronger effect = lower value
Hit rate of the full screen: of about 5,500 compounds, about 2,000 (36%) were called active. About 18% were inconclusive and are not listed. The list shows a part of the results.
Form rule: numeric answer, no unit written next to it.

Worked examples follow.
C=C1C2CC[C@@]3(C)[C@H](c4ccoc4)OC(=O)C[C@]13O[C@H]1CC(=O)C(C)(C)C(CC(=O)OC)[C@@]21C (some centres undefined)    0.995
CSc1ccc2c(c1)N(CCC1CCCCN1C)c1ccccc1S2 (centres undefined)    0.0677
C=C1C(C2(C)C=CC(=O)C(C)(C)C2CC(=O)OC)CC[C@@]2(C)[C@H](c3ccoc3)OC(=O)C3OC132 (some centres undefined)    0.978
C=C1C2=CC(=O)O[C@@H](c3ccoc3)[C@]2(C)CCC1[C@@]1(C)C=CC(=O)C(C)(C)[C@@H]1CC(=O)OC (some centres undefined)    0.998
COc1ccc(C(=O)N2CCCC2=O)cc1    0.983
C=C1C2CC[C@@]3(C)[C@H](c4ccoc4)OC(=O)C[C@]13O[C@H]1CC(O)C(C)(C)C(CC(=O)OC)[C@@]21C (some centres undefined)    1.01
N#C/C(=C\c1cccc(O)c1)C(=O)O    1
COc1cc(OC)c2c3c1C(=O)c1c(OC)cc(C)c4c(OC)cc(c-3c14)C(C)(C)C2=O    1.01

Could you now consider this next molecule?
[Q] Which normalized growth value is on record for "COc1ccc(C(=O)CC(=O)c2ccc(C(C)(C)C)cc2)cc1" ?
[A] 1
